assay: Human HepG2 cell viability assay in 384 well format; type: toxicity, cell-based; parameters: dose 125 nL, time 70.5 hour; concentration not given beside the values; details: HepG2 cells, read-out: Inhibition
The following compounds are listed with their measured cytotoxicity at 70.5 h values.
Returns: string containing the number followed by the unit.

Sample answers from the record:
[
  {
    "COMPOUND": "CC(C)c1cc(CN2CCC(N)CC2)no1",
    "VALUE_OBSERVED": "-6.06%"
  },
  {
    "COMPOUND": "NC(=O)[C@H]1CCCN(c2nccc(-c3c[nH]nc3-c3cccnc3)n2)C1",
    "VALUE_OBSERVED": "-2.79%"
  },
  {
    "COMPOUND": "O=C(c1cccc(Cl)c1)N1CC[C@@H](N2CCC(O)CC2)[C@H](O)C1",
    "VALUE_OBSERVED": "16%"
  },
  {
    "COMPOUND": "Clc1ccc(C2(CNC3=NCCN3)CCCC2)cc1",
    "VALUE_OBSERVED": "8.18%"
  },
  {
    "COMPOUND": "Cc1oc(-c2ccc(Cl)cc2)nc1C(=O)NC1=NCCS1",
    "VALUE_OBSERVED": "11.2%"
  },
  {
    "COMPOUND": "CC(=O)Nc1ccc2c(c1)C1(CCOCC1)C(=O)N2c1ccsc1",
    "VALUE_OBSERVED": "-9.04%"
  },
  {
    "COMPOUND": "CNCCc1nc2cc(F)ccc2[nH]1",
    "VALUE_OBSERVED": "-5.66%"
  },
  {
    "COMPOUND": "Cn1ccc(C(=O)N2CCOC3(COCCN(CC4CC4)C3)C2)n1 (configuration not stated)",
    "VALUE_OBSERVED": "-3.98%"
  }
]

As a next step, examine the compound that follows.
Form field: reported cytotoxicity at 70.5 h of Cc1nc(C2CCCN(C(=O)c3cc(-c4ccccc4)[nH]n3)C2)no1 (configuration not stated)
-3.98%
